Measured optical density values are reported for all entries that follow.
# ASSAYED SYSTEM: Human Fc (human)
# ASSAY PROCEDURE: ELISA, negative control
Reply with just the number (in OD).

Known results for binders:
369_F06 (antibody, V domains shown) VH: EVQLLESGGGLVQPGGSLRLSCAASGFTFDDYSMNWVRQAPGKGLEWVAGINYNGGYKGYADSVKGRFTISRDNSKNTLYLQMNSLRAEDTAVYYCARSANWHDTALDYWGQGTLVTVSS VL: DIQMTQSPSSLSASVGDRVTITCRASQSIVSYVNWYQQKPGKAPKLVIYAATSRASGVPSRFSGSGSGTDFTLTISSLQPEDFATYYCQQSYDSPLTFGGGTKVEIK : 0.353
368_E07 (antibody, V domains shown) VH: EVQLLESGGGLVQPGGSLRLSCAASGFTFSSYGMNWVRQAPGKGLEWVAGINYNGGYTSYADSVKGRFTISRDNSKNTLYLQMNSLRAEDTAVYYCAKSANWHDTALDYWGQGTLVTVSS VL: DIQMTQSPSSLSASVGDRVTITCRASQSILSYLNWYQQKPGKAPKLLIYAVTSRASGVPSRFSGSGSGTDFTLTISSLQPEDFATYYCQQSYENPLTFGGGTKVEIK : 0.251
374_B12 (antibody, V domains shown) VH: EVQLLESGGGLVQPGGSLRLSCAASGFTFDSYSMNWVRQAPGKGLEWVAGINYNGGYTGYADSVKGRFTISRDNSKNTLYLQMNSLRAEDTAVYYCARSANWHDTHLDYWGQGTLVTVSS VL: DIQMTQSPSSLSASVGDRVTITCRASQSISSYLNWYQQKPGKAPKLVIYAATSRASGVPSRFSGSGSGTDFTLTISSLQPEDFATYYCQQSYDNPLTFGGGTKVEIK : 0.257
370_H01 (antibody, V domains shown) VH: EVQLLESGGGLVQPGGSLRLSCAASGFTFSSYSMNWVRQAPGKGLEWVSGINYNSGYKGYADSVKGRFTISRDNSKNTLYLQMNSLRAEDTAVYYCARSANWHDTALDYWGQGTLVTVSS VL: DIQMTQSPSSLSASVGDRVTITCRASQSIISYLNWYQQKPGKAPKLLIYAVTSRASGVPSRFSGSGSGTDFTLTISSLQPEDFATYYCQQSYDTPLTFGGGTKVEIK : 0.436
369_G12 (antibody, V domains shown) VH: EVQLLESGGGLVQPGGSLRLSCAASGFTFSSYSMNWVRQAPGKGLEWVANINYNGGYTGYADSVKGRFTISRDNSKNTLYLQMNSLRAEDTAVYYCARSANWHDTALDYWGQGTLVTVSS VL: DIQMTQSPSSLSASVGDRVTITCRASQSILTYVNWYQQKPGKAPKLVIYAATSRHSGVPSRFSGSGSGTDFTLTISSLQPEDFATYYCQQSDNTPLTFGGGTKVEIK : 0.353

Incoming: Item under review: 368_B01 (antibody, V domains shown) VH: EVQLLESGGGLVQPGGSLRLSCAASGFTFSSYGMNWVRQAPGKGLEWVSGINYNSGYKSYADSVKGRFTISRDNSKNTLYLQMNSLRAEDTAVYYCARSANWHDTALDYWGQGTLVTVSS VL: DIQMTQSPSSLSASVGDRVTITCRASQSISSYLNWYQQKPGKAPKLLIYAATSRASGVPSRFSGSGSGTDFTLTISSLQPEDFATYYCQQSYETPLTFGGGTKVEIK . Reported optical density?
Outgoing: 0.365

Incoming: Item under review: 372_F06 (antibody, V domains shown) VH: EVQLLESGGGLVQPGGSLRLSCAASGFTFSDYGMNWVRQAPGKGLEWVAGINYNGGYKSYADSVKGRFTISRDNSKNTLYLQMNSLRAEDTAVYYCARSANWHDTALDYWGQGTLVTVSS VL: DIQMTQSPSSLSASVGDRVTITCRASQSILSYVNWYQQKPGKAPKLLIYAATSLASGVPSRFSGSGSGTDFTLTISSLQPEDFATYYCQQSYETPLTFGGGTKVEIK . Reported optical density?
Outgoing: 0.38

Incoming: Item under review: 373_C08 (antibody, V domains shown) VH: EVQLLESGGGLVQPGGSLRLSCAASGFTFSSYSMNWVRQAPGKGLEWVANINYNGGYTSYADSVKGRFTISRDNSKNTLYLQMNSLRAEDTAVYYCARSANWHDTALDYWGQGTLVTVSS VL: DIQMTQSPSSLSASVGDRVTITCRASQSIISYLNWYQQKPGKAPKLLIYAASSLQSGVPSRFSGSGSGTDFTLTISSLQPEDFATYYCQQSYNNPLTFGGGTKVEIK . Reported optical density?
Outgoing: 0.16

Incoming: Item under review: 370_F10 (antibody, V domains shown) VH: EVQLLESGGGLVQPGGSLRLSCAASGFTFSSYSMNWVRQAPGKGLEWVAGINYNGGYTSYADSVKGRFTISRDNSKNTLYLQMNSLRAEDTAVYYCARSANWHDTALDYWGQGTLVTVSS VL: DIQMTQSPSSLSASVGDRVTITCRASQSIVSYLNWYQQKPGKAPKLVIYAATSRASGVPSRFSGSGSGTDFTLTISSLQPEDFATYYCQQSYNSPLTFGGGTKVEIK . Reported optical density?
Outgoing: 0.441

Incoming: Item under review: 372_D02 (antibody, V domains shown) VH: EVQLLESGGGLVQPGGSLRLSCAASGFTFSSYGMHWVRQAPGKGLEWVAGINYNGGYTGYADSVKGRFTISRDNSKNTLYLQMNSLRAEDTAVYYCARSANWHDTALDYWGQGTLVTVSS VL: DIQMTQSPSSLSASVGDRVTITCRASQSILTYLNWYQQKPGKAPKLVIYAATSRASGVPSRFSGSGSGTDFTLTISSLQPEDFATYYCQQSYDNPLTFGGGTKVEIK . Reported optical density?
Outgoing: 0.433
